Molecular target: human ether-à-go-go-related gene (hERG) potassium channel (human)
Sequence (Q12809 whole entry, looked up): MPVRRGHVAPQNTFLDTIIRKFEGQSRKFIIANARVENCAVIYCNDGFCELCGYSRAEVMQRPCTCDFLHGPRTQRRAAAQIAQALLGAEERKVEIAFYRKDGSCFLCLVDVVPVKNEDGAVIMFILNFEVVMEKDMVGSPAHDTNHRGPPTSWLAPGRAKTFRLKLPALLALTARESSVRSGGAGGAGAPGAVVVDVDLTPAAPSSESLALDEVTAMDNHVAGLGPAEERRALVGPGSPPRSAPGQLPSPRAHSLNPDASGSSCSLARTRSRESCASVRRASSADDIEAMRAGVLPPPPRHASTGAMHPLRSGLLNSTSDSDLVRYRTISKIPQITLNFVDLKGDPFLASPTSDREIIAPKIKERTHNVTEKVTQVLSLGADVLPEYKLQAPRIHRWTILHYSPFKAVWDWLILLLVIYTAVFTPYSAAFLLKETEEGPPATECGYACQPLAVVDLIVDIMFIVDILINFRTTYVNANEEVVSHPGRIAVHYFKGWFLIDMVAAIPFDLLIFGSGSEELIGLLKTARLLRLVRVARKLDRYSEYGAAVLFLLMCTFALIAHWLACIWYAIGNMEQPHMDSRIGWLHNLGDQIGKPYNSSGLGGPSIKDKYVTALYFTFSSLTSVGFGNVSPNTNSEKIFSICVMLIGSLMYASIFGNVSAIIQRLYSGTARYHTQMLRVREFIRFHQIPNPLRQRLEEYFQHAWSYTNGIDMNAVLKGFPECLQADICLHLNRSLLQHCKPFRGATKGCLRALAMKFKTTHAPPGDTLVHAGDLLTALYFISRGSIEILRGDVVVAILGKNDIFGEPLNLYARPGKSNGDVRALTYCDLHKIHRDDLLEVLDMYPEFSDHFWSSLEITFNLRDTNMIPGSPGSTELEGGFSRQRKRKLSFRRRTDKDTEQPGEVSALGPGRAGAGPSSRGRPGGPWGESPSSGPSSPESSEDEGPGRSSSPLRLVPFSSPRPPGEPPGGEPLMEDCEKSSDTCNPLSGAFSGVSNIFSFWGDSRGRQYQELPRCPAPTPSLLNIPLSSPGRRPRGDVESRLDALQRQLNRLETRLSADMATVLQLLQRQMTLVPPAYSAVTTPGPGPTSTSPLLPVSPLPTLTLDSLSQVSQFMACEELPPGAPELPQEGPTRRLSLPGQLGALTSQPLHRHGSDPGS
Experiment: primary screen, population patch clamp on CHO cells stably expressing hERG; higher = less effect of the substance
Hit rate of the full screen: of about 310,000 compounds, about 2,200 (0.71%) showed an effect of 50% or more. Effects have a minus sign here. The sample as a whole holds a higher share of strong results than the screen did.
readout: hERG current change (%, negative = inhibition) at 1uM
Your answer should be a number followed by the unit of measure.

Use these answered entries as a reference point.
• CCOC(=O)Nc1ccc2c(c1)N(C(=O)CCN(C)C)c1ccccc1S2.Cl = -5.69%
• Cc1ccc(N=C2NC(=O)C(CC(=O)O)S2)cc1 (stereo not shown) = 8.56%
• CCOC(=O)c1sc(NC(=O)c2ccc(OC)cc2)nc1C = 15.9%
• O=c1oc2ccc(Cl)cc2cc1-c1ccccc1 = 16.1%

// for each molecule in input: emit hERG current change (%, negative = inhibition) at 1uM
1. COc1ccccc1Nc1nc(N)nc(CN2CCN(Cc3ccccc3)CC2)n1
2. CNC(=O)C(=O)NCCN1CCN(C(=O)c2ccc([N+](=O)[O-])cc2)CC1
3. COc1ccc(N2CCN(Cc3nc(N)nc(Nc4ccccc4OC)n3)CC2)cc1
4. COc1ccc(CN(CC(=O)NC2CCCCC2)C(=O)CCCC(=O)Nc2ccccn2)cc1
5. CC(NC(=O)C(=O)NCCN1CCN(C(=O)c2ccc([N+](=O)[O-])cc2)CC1)c1ccccc1 (stereo not shown)
6. COc1ccc(-c2csc(N3C(=O)C4C5c6ccccc6C(c6ccccc65)C4C3=O)n2)cc1 (stereo not shown)

[A]
-76.6%
9.09%
-14.5%
9.4%
-67.8%
11.9%

# batch size: 8; output hERG current change (%, negative = inhibition) at 1uM per entry
1. COc1ccccc1Nc1nc(N)nc(CN2CCN(Cc3ccc4c(c3)OCO4)CC2)n1
2. O=C(c1cc(-c2ccc(O)cc2)on1)N1CCCc2ccccc21
3. N#CCCN(CCN1CCCC1)S(=O)(=O)c1ccc(-c2ccc([N+](=O)[O-])cc2)cc1
4. O=C(NCCN1CCN(C(=O)c2ccc([N+](=O)[O-])cc2)CC1)C(=O)Nc1ccc(F)cc1
5. COc1cccc(NC(=O)Nc2nnc(CC(=O)Nc3ccccc3)s2)c1
6. Cc1cccc(NC(=O)CNC(=O)COc2ccc(C(=O)c3ccc(F)cc3)cc2)c1C
7. COc1ccccc1Nc1nc(N)nc(CN2CCN(c3ccccc3)CC2)n1
8. CC(NC(=O)C(=O)NCCN1CCN(C(=O)c2ccccc2Br)CC1)c1ccccc1 (stereo not shown)

[A]
1. -79.8%
2. 8.9%
3. -76.5%
4. -84.3%
5. 6.56%
6. 1.92%
7. -3.16%
8. 9.08%

For each of the molecules below, state hERG current change (%, negative = inhibition) at 1uM.
1. N#CCC1c2ccccc2CCN1C(=O)Nc1ccc(C(F)(F)F)cc1 (stereo not shown)
2. COc1ccccc1Nc1nc(N)nc(CN2CCCCCC2)n1
3. CCCN(CCC)CCNC(=O)C1CC(=O)N(c2ccc(OC)cc2)C1c1ccc(OC)cc1 (stereo not shown)
4. O=[N+]([O-])c1ccc(S(=O)(=O)NCCN2CCOCC2)cc1
5. C/C(=N\NC(=O)C1(C)CC1(Br)Br)c1cccc(NC(=O)c2ccc(C)o2)c1 (stereo not shown)

[A]
-4.23%
-32.2%
-18.1%
12.6%
11.8%
